All values here come from patent US8916570B2.

molecular target: UniProt:P0DMS8; experiment: [125I]I-AB-MECA binding, human A3 AR, CHO membranes (Table 1); conditions: A3 Ki, species H (human)

Compound	Ki
CNC(=O)C12CC1C(n1cnc3c(NCc4cccc(Cl)c4)nc(C#CCCCCC(=O)NCCN)nc31)C(O)C2O (stereo not shown) [Compound 38]	3.4 nM
CNC(=O)C12CC1C(n1cnc3c(NCc4cccc(Cl)c4)nc(C#CCCC(=O)NCCCN)nc31)C(O)C2O (stereo not shown) [Compound 39]	3.1 nM
CNC(=O)C12CC1C(n1cnc3c(NCc4cccc(Cl)c4)nc(C#CCCCCC(=O)O)nc31)C(O)C2O (stereo not shown) [Compound 34]	12.4 nM
CNC(=O)C12CC1C(n1cnc3c(NOC)nc(Cl)nc31)C(O)C2O (stereo not shown) [Compound 21]	149 nM
CNC(=O)C12CC1C(n1cnc3c(NCc4cccc(Cl)c4)nc(C#CCCC(=O)O)nc31)C(O)C2O (stereo not shown) [Compound 33]	61.1 nM
CNC(=O)C12CC1C(n1cnc3c(NCc4cccc(Cl)c4)nc(C#C[Si](C)(C)C)nc31)C(O)C2O (stereo not shown) [Compound 4]	0.98 nM
CNC(=O)C12CC1C(n1cnc3c(NCc4cccc(Cl)c4)nc(C#CCCC(=O)OC)nc31)C(O)C2O (stereo not shown) [Compound 35]	5.5 nM
CNC(=O)C12CC1C(n1cnc3c(NCc4cccc(Cl)c4)nc(C#CCCCCC(=O)OC)nc31)C(O)C2O (stereo not shown) [Compound 36]	11.1 nM
CNC(=O)C12CC1C(n1cnc3c(NCc4cccc(C#CCCCC(=O)NCCN)c4)nc(Cl)nc31)C(O)C2O (stereo not shown) [Compound 10]	5.21 nM
CNC(=O)C12CC1C(n1cnc3c(NCc4cccc(Cl)c4)nc(SC)nc31)C(O)C2O (stereo not shown) [Compound 20]	1.5 nM
CNC(=O)C12CC1C(n1cnc3c(NCc4cccc(Cl)c4)nc(C#CCCC(=O)NCCN)nc31)C(O)C2O (stereo not shown) [Compound 37]	2.5 nM
CNC(=O)C12CC1C(n1cnc3c(NCc4cccc(Cl)c4)nc(C#CCCC(=O)NCCNC(=O)CCCCCNC(=O)CCCCC4SCC5NC(=O)NC54)nc31)C(O)C2O (stereo not shown) [Compound 43]	57.7 nM
CNC(=O)C12CC1C(n1cnc3c(NCc4cccc(Cl)c4)nc(C#CCCCC(=O)NCCN)nc31)C(O)C2O (stereo not shown) [Compound 8]	2.17 nM
CNC(=O)C12CC1C(n1cnc3c(NCc4cccc(Cl)c4)nc(C#CCCC(=O)NCCCCN)nc31)C(O)C2O (stereo not shown) [Compound 40]	2.1 nM
CNC(=O)C12CC1C(n1cnc3c(NCc4cccc(Cl)c4)nc(C#CCCC(=O)NCCNCCN)nc31)C(O)C2O (stereo not shown) [Compound 41]	15.4 nM
CNC(=O)C12CC1C(n1cnc3c(NCc4cccc(Cl)c4)nc(C#CCCC(=O)NCCNC(=O)CCCCC4SCC5NC(=O)NC54)nc31)C(O)C2O (stereo not shown) [Compound 42]	36.4 nM

----------
molecular target: mouse A2A adenosine receptor (Mus musculus, UniProt Q60613); experiment: Competition radioligand binding, mouse A2A AR, HEK293 membranes (Table 1); conditions: read-out: A2A % inhib.
Sequence (Q60613 whole entry): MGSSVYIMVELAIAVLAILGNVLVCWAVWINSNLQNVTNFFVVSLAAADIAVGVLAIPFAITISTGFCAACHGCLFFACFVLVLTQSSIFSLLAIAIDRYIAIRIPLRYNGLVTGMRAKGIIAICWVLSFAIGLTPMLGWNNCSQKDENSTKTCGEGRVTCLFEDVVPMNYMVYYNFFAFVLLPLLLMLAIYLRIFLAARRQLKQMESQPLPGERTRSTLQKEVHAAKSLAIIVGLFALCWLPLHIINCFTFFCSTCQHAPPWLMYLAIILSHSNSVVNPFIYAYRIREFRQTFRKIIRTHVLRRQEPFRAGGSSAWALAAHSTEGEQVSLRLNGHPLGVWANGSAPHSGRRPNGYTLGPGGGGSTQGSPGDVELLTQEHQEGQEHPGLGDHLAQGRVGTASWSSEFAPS
Recorded metric: inhibition at 100 µM (%)

                                   molecule  unit_info  measured
0  CNC(=O)C12CC1C(n1cnc3c(NOC)nc(Cl)nc31)C(O)C2O (centres unmarked)          %         2
1  CNC(=O)C12CC1C(n1cnc3c(NCc4cccc(Cl)c4)nc(C#C[Si](C)(C)C)nc31)C(O)C2O (centres unmarked)          %        20
2  CNC(=O)C12CC1C(n1cnc3c(NCc4cccc(Cl)c4)nc(SC)nc31)C(O)C2O (centres unmarked)          %        32
3  CNC(=O)C12CC1C(n1cnc3c(NCc4cccc(C#CCCCC(=O)NCCN)c4)nc(Cl)nc31)C(O)C2O (centres unmarked)          %        39
4  CNC(=O)C12CC1C(n1cnc3c(NCc4cccc(Cl)c4)nc(C#CCCCC(=O)OC)nc31)C(O)C2O (centres unmarked)          %        50
5  CNC(=O)C12CC1C(n1cnc3c(NCc4cccc(Cl)c4)nc(C#CCCCC(=O)NCCN)nc31)C(O)C2O (centres unmarked)          %        31
6  CNC(=O)C12CC1C(n1cnc3c(NCc4cccc(Cl)c4)nc(C#CCCCC(=O)O)nc31)C(O)C2O (centres unmarked)          %         8
7  CNC(=O)C12CC1C(n1cnc3c(NCc4cccc(Cl)c4)nc(I)nc31)C(O)C2O (centres unmarked)          %        40

----------
biological target: mouse A1 adenosine receptor (Mus musculus); assay: Competition radioligand binding, mouse A1 AR, HEK293 membranes (Table 1)
Sequence (Q60612 whole entry): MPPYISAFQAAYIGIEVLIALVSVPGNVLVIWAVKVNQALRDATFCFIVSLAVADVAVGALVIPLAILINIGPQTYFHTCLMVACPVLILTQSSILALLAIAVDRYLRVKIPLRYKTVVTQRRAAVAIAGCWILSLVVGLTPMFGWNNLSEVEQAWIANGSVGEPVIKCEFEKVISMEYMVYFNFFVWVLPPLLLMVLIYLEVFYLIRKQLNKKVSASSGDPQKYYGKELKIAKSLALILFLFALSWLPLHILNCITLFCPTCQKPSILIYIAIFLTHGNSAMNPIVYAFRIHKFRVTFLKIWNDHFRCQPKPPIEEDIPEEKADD
Recorded metric: Ki (nM)

>>> df
                                   molecule                             target_system  measured
0  CNC(=O)C12CC1C(n1cnc3c(NCc4cccc(C#CCCCC(=O)NCCN)c4)nc(Cl)nc31)C(O)C2O (stereo not shown) [Compound 10]  mouse A1 adenosine receptor (Mus musculus)       151
1  CNC(=O)C12CC1C(n1cnc3c(NCc4cccc(Cl)c4)nc(C#CCCCC(=O)NCCN)nc31)C(O)C2O (stereo not shown) [Compound 8]  mouse A1 adenosine receptor (Mus musculus)       546
2  CNC(=O)C12CC1C(n1cnc3c(NCc4cccc(Cl)c4)nc(SC)nc31)C(O)C2O (stereo not shown) [Compound 20]  mouse A1 adenosine receptor (Mus musculus)      98.9
3  CNC(=O)C12CC1C(n1cnc3c(NCc4cccc(Cl)c4)nc(C#C[Si](C)(C)C)nc31)C(O)C2O (stereo not shown) [Compound 4]  mouse A1 adenosine receptor (Mus musculus)       159
4  CNC(=O)C12CC1C(n1cnc3c(NCc4cccc(Cl)c4)nc(C#CCCCC(=O)OC)nc31)C(O)C2O (stereo not shown) [Compound 6]  mouse A1 adenosine receptor (Mus musculus)      1340
5  CNC(=O)C12CC1C(n1cnc3c(NOC)nc(Cl)nc31)C(O)C2O (stereo not shown) [Compound 21]  mouse A1 adenosine receptor (Mus musculus)      1160
6  CNC(=O)C12CC1C(n1cnc3c(NCC(c4ccccc4)c4ccccc4)nc(Cl)nc31)C(O)C2O (stereo not shown) [Compound 18]  mouse A1 adenosine receptor (Mus musculus)      6.83

----------
molecular target: mouse A3 adenosine receptor (Mus musculus, UniProt Q61618); assay: Competition radioligand binding, mouse A3 AR, HEK293 membranes (Table 1); conditions: read-out: A3 Ki; species M (mouse); [125I]I-AB-MECA
Sequence (Q61618 whole entry): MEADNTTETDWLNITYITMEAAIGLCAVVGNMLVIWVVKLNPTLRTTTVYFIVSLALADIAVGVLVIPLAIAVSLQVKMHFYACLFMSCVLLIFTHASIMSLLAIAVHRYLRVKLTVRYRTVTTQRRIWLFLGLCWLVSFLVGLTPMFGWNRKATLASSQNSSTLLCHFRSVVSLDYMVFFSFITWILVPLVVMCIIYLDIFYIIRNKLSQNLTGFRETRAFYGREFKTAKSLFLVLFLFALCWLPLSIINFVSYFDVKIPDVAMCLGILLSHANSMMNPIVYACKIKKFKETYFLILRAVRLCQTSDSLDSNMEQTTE
pKi: −log10 of the molar value.
Recorded metric: pKi

In [3]: df
Out[3]:
                              record_smiles                             target_system  measured
0  CNC(=O)[C@@]12C[C@@H]1[C@@H](n1cnc3c(NC)nc(Cl)nc31)[C@H](O)[C@@H]2O  mouse A3 adenosine receptor (Mus musculus, UniProt Q61618)      7.31
1  CNC(=O)[C@@]12C[C@@H]1[C@@H](n1cnc3c(NCc4cccc(Cl)c4)nc(Cl)nc31)[C@H](O)[C@@H]2O  mouse A3 adenosine receptor (Mus musculus, UniProt Q61618)      8.83
2  CNC(=O)[C@@]12C[C@@H]1[C@@H](n1cnc3c(NCc4cc(OC)ccc4OC)nc(Cl)nc31)[C@H](O)[C@@H]2O  mouse A3 adenosine receptor (Mus musculus, UniProt Q61618)      8.76
3  CNC(=O)[C@@]12C[C@@H]1[C@@H](n1cnc3c(NCc4cccc(I)c4)nc(Cl)nc31)[C@H](O)[C@@H]2O  mouse A3 adenosine receptor (Mus musculus, UniProt Q61618)      9.10
4  CNC(=O)[C@@]12C[C@@H]1[C@@H](n1cnc3c(NCc4cccc(Br)c4)nc(Cl)nc31)[C@H](O)[C@@H]2O  mouse A3 adenosine receptor (Mus musculus, UniProt Q61618)      9.05

----------
target: human A3AR (Homo sapiens, UniProt P0DMS8); construct: expressed in transfected cells; host or cells: CHO; experiment: Inhibition of forskolin-stimulated cyclic AMP production in AR transfected CHO cells (Table 1); format: cell-based; settings: CHO; read-out: % Efficacy at the human A3 AR
Sequence (P0DMS8 whole entry): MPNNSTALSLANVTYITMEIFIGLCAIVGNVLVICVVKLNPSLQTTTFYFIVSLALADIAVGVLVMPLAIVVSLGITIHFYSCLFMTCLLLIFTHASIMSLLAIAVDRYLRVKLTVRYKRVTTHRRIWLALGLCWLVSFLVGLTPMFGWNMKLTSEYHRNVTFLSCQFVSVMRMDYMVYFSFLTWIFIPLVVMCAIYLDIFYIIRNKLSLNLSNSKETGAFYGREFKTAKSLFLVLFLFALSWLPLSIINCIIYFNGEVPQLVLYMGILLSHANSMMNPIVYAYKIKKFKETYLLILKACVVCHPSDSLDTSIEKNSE
Reported Emax at 10 µM values for a set of compounds

Compound	Target system	Unit info	Emax at 10 µM
CNC(=O)C12CC1C(n1cnc3c(NCc4cccc(Cl)c4)nc(C#CCCC(=O)OC)nc31)C(O)C2O (stereo not drawn)	human A3AR (Homo sapiens, UniProt P0DMS8)	%	74.4
CNC(=O)C12CC1C(n1cnc3c(NCc4cccc(Cl)c4)nc(C#CCCC(=O)O)nc31)C(O)C2O (stereo not drawn)	human A3AR (Homo sapiens, UniProt P0DMS8)	%	106
CNC(=O)C12CC1C(n1cnc3c(NCc4cccc(Cl)c4)nc(C#CCCC(=O)NCCNC(=O)CCCCCNC(=O)CCCCC4SCC5NC(=O)NC54)nc31)C(O)C2O (stereo not drawn)	human A3AR (Homo sapiens, UniProt P0DMS8)	%	106
CNC(=O)C12CC1C(n1cnc3c(NC4CCCC4)nc(Cl)nc31)C(O)C2O (stereo not drawn)	human A3AR (Homo sapiens, UniProt P0DMS8)	%	101
CNC(=O)C12CC1C(n1cnc3c(NCc4cccc(Cl)c4)nc(C#CCCC(=O)NCCCCN)nc31)C(O)C2O (stereo not drawn)	human A3AR (Homo sapiens, UniProt P0DMS8)	%	102
CNC(=O)C12CC1C(n1cnc3c(NCc4cccc(Cl)c4)nc(C#CCCCCC(=O)OC)nc31)C(O)C2O (stereo not drawn)	human A3AR (Homo sapiens, UniProt P0DMS8)	%	90
